assay: growth inhibition of MALME3 cells – cell-based, CellTiter-Glo, cherry-picked, orthogonal assay for MITF inhibitor project, dose response (AID 493191); conditions: MALME3 melanoma viability, CellTiter-Glo luminescence, 24 h; series mostly up to 35 µM
Among all 1,300 compounds or so, about 330 (25%) were called active. These entries were drawn from the full list. Potency and affinity values are given separately.
property: outcome

Study these solved cases before continuing.
>>> val("COc1cc(OC)cc(-c2oc(=O)c3cc(OC)c(OC)cc3c2C(F)(F)F)c1")
"inactive"
>>> val("Cc1nc(C)c(C(=O)N/N=C/c2cc(Br)ccc2O)s1")
"inactive"
>>> val("CCCc1ccc(-c2ccc(/C=C/C(=O)O)cc2)nc1")
"inactive"
>>> val("O=c1nc(N/N=C/c2ccccn2)cn[nH]1")
"inactive"
>>> val("O=C(Nc1ccccc1)NN(C(=O)CCl)c1ccccc1")
"inactive"

**Q:** Field request: outcome | item: `Cc1cc(Cl)ccc1NC(=O)c1ccc2c(c1)OCO2`
**A:** inactive

**Q:** Field request: outcome | item: `Cc1cc(C(=O)COc2cccnc2[N+](=O)[O-])c(C)n1-c1ccccc1`
**A:** inactive

**Q:** Field request: outcome | item: `O=C(N/N=C/c1cc(Br)ccc1O)c1ccncc1`
**A:** inactive

**Q:** Field request: outcome | item: O=C1CCC2S/C(=C/Nc3ccc(C(F)(F)F)cc3)C(=O)N12 (stereo not given)
**A:** inactive

**Q:** Field request: outcome | item: COc1ccc(NC(=O)C2COc3ccccc3O2)cc1 (stereo not given)
**A:** inactive

**Q:** Field request: outcome | item: CCOC(=O)/C=c1\s/c(=C\c2ccc3cc(OC)ccc3c2)c(=O)n1CC(=O)NCC1CCCO1 (stereo not given)
**A:** inactive

**Q:** Field request: outcome | item: `CCN(CC)S(=O)(=O)c1cccc(C(=O)N/N=C(\C)c2ccc(O)cc2O)c1`
**A:** inactive

**Q:** Field request: outcome | item: `O=C(Nc1ccccc1Cl)c1cc(=O)c2ccccc2o1`
**A:** inactive

**Q:** Field request: outcome | item: `Cc1ccsc1C(=O)OCC(=O)Nc1sccc1C(N)=O`
**A:** inactive

**Q:** Field request: outcome | item: `Nc1c(-c2ccc(Cl)cc2)nnn1-c1ccccc1`
**A:** inactive

**Q:** Field request: outcome | item: `COc1ccc(NC(=O)Nc2ccc(F)c(F)c2)c(OC)c1`
**A:** inactive

**Q:** Field request: outcome | item: `Cc1ccc(-c2cn(-c3ccc(SC(F)F)cc3)c3[n+]2CCC3)cc1`
**A:** inactive

**Q:** Field request: outcome | item: `Cn1cccc1-c1cc(C(=O)N/N=C/c2cc(Br)ccc2O)[nH]n1`
**A:** inactive

**Q:** Field request: outcome | item: `Cc1cc(C(=O)CN2C(=O)c3ccccc3S2(=O)=O)c(C)n1-c1ccccc1`
**A:** inactive

**Q:** Field request: outcome | item: `CCC(=O)Nc1cc(C(=O)OCC(=O)c2ccccc2Cl)ccc1C`
**A:** inactive

**Q:** Field request: outcome | item: `O=C(COC(=O)c1ccc(F)c([N+](=O)[O-])c1)NC(=O)NCc1ccccc1`
**A:** inactive

**Q:** Field request: outcome | item: `Oc1c(CN2CCCC2)cc(COCc2ccccc2)c2cccnc12`
**A:** inactive

**Q:** Field request: outcome | item: `O=C(NC1CC1)C1CCN(S(=O)(=O)c2ccc(Cl)c([N+](=O)[O-])c2)CC1`
**A:** inactive

**Q:** Field request: outcome | item: `CCCCC(=O)N/C(N)=N/c1nc2ccccc2o1`
**A:** inactive

**Q:** Field request: outcome | item: `O=C(NCCNc1ccccc1[N+](=O)[O-])c1cc(F)c(F)cc1Cl`
**A:** inactive

**Q:** Field request: outcome | item: `Cc1c(C(=O)N(CCO)Cc2ccccc2)oc2c(F)cccc12`
**A:** inactive
